protocol: protein stability index of a GFP-peptide fusion (GPS, HEK-293T) (PSI 1-6); higher = more stable;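 note: 24-mer peptide tiles fused after GFP, lentivirally expressed, FACS-sorted into six equal bins by GFP/DsRed ratio, decoded by Illumina sequencing, PSI is the read-weighted mean bin number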
experimental-conditions: treatment: MLN4924 1 uM, 8 h; c terminus: a fixed tail appended
Classify by measured protein stability index: Yes if it is equal to or exceeds 3, No if it is smaller.

Solved entries:
[
  {
    "sequence-entry": "MYSVEITVEKDKVTGETRVLSSTT [PALM]",
    "category": "Yes"
  },
  {
    "sequence-entry": "RRLLSYCKGRDHGVLDALHVLEGL [ZSWIM9]",
    "category": "No"
  },
  {
    "sequence-entry": "YGYNNVVTIPAGATHILVRQQGNP [ADAMTS4]",
    "category": "No"
  },
  {
    "sequence-entry": "ILLEYCSRRSMAHILKARKVLTEP [PLK2]",
    "category": "No"
  },
  {
    "sequence-entry": "GEKPYECVQCGKSYSQSSNLFRHQ [ZNF24]",
    "category": "No"
  }
]

Data request: Does protein stability index meet or surpass 3 for AAGEPLECPTCGHSYNVTQRRPRV [RNF208] ?
Data returned: Yes

Data request: Does protein stability index meet or surpass 3 for LDGLIQQCGETMKETVNVKTVCGY [GMCL1] ?
Data returned: Yes

Data request: Does protein stability index meet or surpass 3 for AAINSIYSNTDANILFYVVGLRNT [GLT8D2] ?
Data returned: No

----------
protocol: protein stability index of a GFP-peptide fusion (GPS, HEK-293T) (PSI 1-6); higher = more stable
experimental-conditions: treatment: DMSO; c terminus: a fixed tail appended
Classify by measured protein stability index: y if it is equal to or exceeds 4, n if it is smaller.

[
  {
    "sequence-entry": "LEKSNKNFSKKIQQIHVVSQFKIL [VPS39]",
    "category": "n"
  },
  {
    "sequence-entry": "QSLAQPLPGNTTEATPRSLRASGS",
    "category": "y"
  },
  {
    "sequence-entry": "MEAPGLAQAAAAESDSRKVAEETP [PRKX]",
    "category": "y"
  },
  {
    "sequence-entry": "SLADQMSLLQSAWMEILILGVVYR [ESRRG]",
    "category": "n"
  },
  {
    "sequence-entry": "DGLREQLQAPVPPDSVPSLQNMGL [PBXIP1]",
    "category": "y"
  }
]

Data request: Does protein stability index meet or surpass 4 for PSHHPTDPVELRRLNFQTPGMASH [PTPRD] ?
Data returned: n

Data request: Does protein stability index meet or surpass 4 for RRQCRPEIRMWQTREKAKFSDGEK [PHTF1] ?
Data returned: n

Data request: Does protein stability index meet or surpass 4 for SCTVTTVQPMDRLPYQHFSAHFTS [TBX5] ?
Data returned: n

Data request: Does protein stability index meet or surpass 4 for QLFSQIGPCKNCKMIMDTAGNDPY [TIA1] ?
Data returned: n

Data request: Does protein stability index meet or surpass 4 for SVTEYRLDGHTISDLSRSSRGELI [MYBL2] ?
Data returned: n

Data request: Does protein stability index meet or surpass 4 for AARGKERCVRVFLEHGADPTVKDL [ASB7] ?
Data returned: n

Data request: Does protein stability index meet or surpass 4 for GWLSVSDDLTSVTNHGYRVQVENP [TRIM35] ?
Data returned: n

Data request: Does protein stability index meet or surpass 4 for RRKDVCQAIDHGCEHICVNSDDSY [MATN2] ?
Data returned: y

Data provenance: the supplement of paper PMC10567573
